The origin of these recorded values is patent US20230398130A1.

# Tested on: ISC-enriched organoids
# RUN DESCRIPTION: Primary screen, 384-well 2.5-D organoid differentiation (ENR+CD, 6 days, Target Selective Inhibitor Library, vs whole-plate median): ATP (CellTiter-Glo 3D, CTG)
# ASSAY CONTEXT: Dose 0.08 uM; primary screen, standard z score
Where a name gives a salt, the structure may show the parent alone.
REPORTED PROPERTY: Z.CTG
# print the numeric value only

Check out these entries, answers already filled in.
- MOLECULE: "CN(Cc1cnc2nc(N)nc(N)c2n1)c1ccc(C(=O)N[C@@H](CCC(=O)O)C(=O)O)cc1 [Methotrexate]"
  Z.CTG: "−1.469"
- MOLECULE: "CC12CC3CC(C)(C1)CC(N)(C3)C2 [Memantine HCl]"
  Z.CTG: 0.199
- MOLECULE: "COc1ccc(COc2ccc(Cc3cnc(N)nc3N)cc2OC)cc1"
  Z.CTG: "−0.101"
- MOLECULE: "CC[C@H](C)C(=O)O[C@H]1C[C@@H](C)C=C2C=C[C@H](C)[C@H](CC[C@@H]3C[C@@H](O)CC(=O)O3)[C@H]21"
  Z.CTG: "−0.769"

Summary for this molecule, CCn1c(-c2nonc2N)nc2c(C#CC(C)(C)O)ncc(OC[C@H]3CCCNC3)c21 : Z.CTG is 0.308

Summary for this molecule, O=C(c1cn(Cc2cncn2Cc2ccc(Br)cc2)cc1-c1cccc2ccccc12)N1CCOCC1 : Z.CTG is −0.172

Summary for this molecule, C#Cc1cccc(Nc2ncnc3cc4c(cc23)OCCOCCOCCO4)c1 : Z.CTG is −0.047

Summary for this molecule, CCc1c2c(nc3ccc(OC(=O)N4CCC(N5CCCCC5)CC4)cc13)-c1cc3c(c(=O)n1C2)COC(=O)[C@]3(O)CC [Irinotecan HCl Trihydrate] : Z.CTG is −0.199
